# experimental details: Inhibition of SUMO E1 (unknown origin)
# Design: species or system Homo sapiens
For each of the molecules below, state its pIC50.
Answers are plain numbers, as −log10 of the molar value.

// each listed molecule needs a value for pIC50
1. NS(=O)(=O)OC[C@@H]1C[C@@H](Nc2ncncc2C(=O)c2ccn(Cc3cccc(Br)c3)n2)C[C@@H]1O
2. NS(=O)(=O)OC[C@@H]1C[C@@H](n2ccc3c(NC4CCc5ccccc54)ncnc32)C[C@@H]1O (some centres not stated)

Marked response:
8.52
5.09

* * *

# experimental details: Inhibition of His-tagged SUMO1/SUMO E1 /GST-tagged Aos1/Uba2/His-tagged Ubc9 (unknown origin)-mediated recombinant His/T7-tagged RanGAP1-C2-terminal fragment SUMOylation in presence of ATP by SDS-PAGE based immunoblotting analysis
# Design: species or system Homo sapiens
value kind: IC50 (µM)
Numbers only, in µM.

Exam item: Given `CO/C(=C/C(=O)O)[C@H]1c2cc3ccc(-c4ccc5cc6c(c(O)c5c4O)C(=O)C[C@@](C)(O)[C@H]6/C(=C\C(=O)O)OC)c(O)c3c(O)c2C(=O)C[C@@]1(C)O` , respond with its IC50.
Marked response: 4.4

Data origin: ChEMBL document CHEMBL5113384
